Source of measurements: the supplement of paper PMC10567573

method: protein stability index of a GFP-peptide fusion (GPS, HEK-293T) (PSI 1-6); higher = more stable;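 also: 24-mer peptide tiles fused after GFP, lentivirally expressed, FACS-sorted into six equal bins by GFP/DsRed ratio, decoded by Illumina sequencing, PSI is the read-weighted mean bin number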
experimental context: treatment: DMSO; c terminus: a fixed tail appended
Entries and their protein stability index
// keep it numeric: no unit symbol after the value

{"primary sequence": "HQPKGLEEENAQLRGALQQGEAFQ [PBXIP1]", "numeric readout": 5.07}

Item NKILVPLVLLRQMLLELTRRGQEP [BCL2L13] has what recorded protein stability index?
2.64

Item GFTDRREARKYASNLLKAGFIRHT [DVL3] has what recorded protein stability index?
2.66

Item EECAKWLLLNNANPNLSNRRGSTP [RIPK4] has what recorded protein stability index?
3.56

Item CQALDANLDANLAFASFTSGVVRI [TLE6] has what recorded protein stability index?
2.66

Item EPPPPLHNNNNNCEENEQSLPPPA [BNIP3L] has what recorded protein stability index?
5.51

Item GEESSKAKEVTIAKADTTSTVTPV [EHMT1] has what recorded protein stability index?
5.55

Item KAMESQRAYRFVQGKDWGFKKFIR [SPOPL] has what recorded protein stability index?
2.22
